assay: Phase 1 study of pharmacokinetics and safety of imeglimin in subjects with renal impairment compared to normal renal function; assay type: in vivo, human; settings: human, urine, po, 1000 mg, 1000 mg QD oral, Day 8, normal renal function (N = 10), geometric mean; read-out: CLR (renal clearance)

MOL_SMILES: C[C@H]1N=C(N(C)C)N=C(N)N1
UOM: mL/min
CL renal: 418

---

assay: Phase 1 study of pharmacokinetics and safety of imeglimin in subjects with renal impairment compared to normal renal function; assay type: in vivo, human; details: human, plasma, po, 1000 mg, 1000 mg QD oral, Day 8, CKD stage 2 (mild renal impairment; N = 5), median; read-out: tmax

MOLECULE: C[C@H]1N=C(N(C)C)N=C(N)N1 [imeglimin]
Tmax / h: 4
